The measured values listed here are drawn from patent US4570005A.

assay_method_text: Test 8: Fish Toxicity
Assay type: in vivo
details: carp, water; concentration at which 1/2 of the test fishes were killed within 48 hours; read-out: Fish Toxicity, TLm48

compound: CC(C)(COCc1cccc(Oc2ccc(Br)cc2)c1)c1ccc(Cl)cc1 [Compound 4]
LC50 at 48 h: > 10 µg/mL

compound: CC(C)(CSCc1cccc(Oc2ccc(Br)cc2)c1)c1ccc(Cl)cc1 [Compound 37]
LC50 at 48 h: > 10 µg/mL

compound: CCOc1ccc(C(C)(C)COCc2cccc(Oc3ccccc3)c2)cc1 [Compound 55]
LC50 at 48 h: > 0.1 µg/mL

* * *

Test system: tobacco cutworm
assay_method_text: Test 2: Tobacco Cutworm Larva Dipping Test, mortality after 24 hours
Type: in vivo
details: 20 ppm; fifth-instar larvae; 24 hours; read-out: Motality (%), Fifth-Instar Larvae
Protocol: To a mixture of 20 parts of the compound of the present invention and 20 parts of Sorpol SM-200 (registered tradename for the product supplied by Toho Chemical Industrial Co., Ltd.) was added 60 parts of xylol, and the mixture was suffciently blended. The obtained emulsifiable concentrate was diluted at a predetermined concentration with distilled water, and the obtained dilution was used. […]

compound: Cc1ccc(C(C)(C)COCc2cccc(Oc3ccc(F)cc3)c2)cc1 [Compound 3]
mortality at 20 ppm [%]: 60
--
compound: CC(C)(COCc1cccc(Oc2ccccc2)c1)c1ccc(OC(F)F)cc1 [Compound 18]
mortality at 20 ppm [%]: 100
--
compound: CC(C)(COCc1cccc(Oc2ccc(F)cc2)c1)c1ccc(OC(F)F)cc1 [Compound 11]
mortality at 20 ppm [%]: 70
--
compound: CC(C)(COCc1cccc(Oc2ccc(Br)cc2)c1)c1ccc(Cl)cc1 [Compound 4]
mortality at 20 ppm [%]: 70
--
compound: C=COc1ccc(C(C)(C)COCc2cccc(Oc3ccccc3)c2)cc1 [Compound 67]
mortality at 20 ppm [%]: 100
--
compound: CCOc1ccc(C(C)(C)COCc2cccc(Oc3ccccc3)c2)cc1C [Compound 90]
mortality at 20 ppm [%]: 90
--
compound: CC(C)(COCc1cccc(Oc2ccccc2)c1)c1ccc2c(c1)OCO2 [Compound 7]
mortality at 20 ppm [%]: 50
--
compound: CC(F)(F)Oc1ccc(C(C)(C)COCc2cccc(Oc3ccccc3)c2)cc1 [Compound 79]
mortality at 20 ppm [%]: 50

* * *

Test system: two-spotted spider mite
assay_method_text: Test 6: Effect on Two-Spotted Spider mite Adults
Assay type: in vivo
details: Tetranychus urticae; 100 ppm; adults; 24 hours; 25° C; read-out: Mortality (%)
measured_property: mortality at 100 ppm (%)

compound: CC(C)(COCc1cccc(Oc2ccccc2)c1)c1ccc2c(c1)OCO2 [Compound 7]
reported_measurement: 100

compound: CC(C)COc1ccc(C(C)(C)COCc2cccc(Oc3ccccc3)c2)cc1 [Compound 64]
reported_measurement: 100

compound: CC(C)C(COCc1cccc(Oc2ccccc2)c1)c1ccc(Cl)cc1 (stereo not drawn) [Comparative Compound (b), reference compound]
reported_measurement: 20

compound: C#CCOc1ccc(C(C)(C)COCc2cccc(Oc3ccccc3)c2)cc1 [Compound 98]
reported_measurement: 100

compound: CC(C)(COCc1cccc(Oc2cccc(Cl)c2)c1)c1ccc(OC(F)F)cc1 [Compound 25]
reported_measurement: 90

compound: CC(C)(C)c1ccc(C(C)(C)COCc2cccc(Oc3ccccc3)c2)cc1 [Compound 105]
reported_measurement: 100

compound: CCC(C)(COCc1cccc(Oc2ccccc2)c1)c1ccc(Cl)cc1 (stereo not drawn) [Compound 50]
reported_measurement: 100

compound: CC(C)(COCc1cccc(Oc2ccccc2)c1)c1cc(Cl)cc(Cl)c1 [Compound 56]
reported_measurement: 80

compound: CC(C)(COCc1cccc(Cc2ccccc2)c1)c1ccc(Cl)cc1 [Compound 35]
reported_measurement: 85

compound: CCC(C)(COCc1cccc(Oc2ccc(Br)cc2)c1)c1ccc(F)cc1 (stereo not drawn) [Compound 16]
reported_measurement: 90

compound: CCOc1ccc(C(C)(C)COCc2cccc(Oc3ccccc3)c2)cc1C [Compound 90]
reported_measurement: 100

compound: CC(C)(COCc1cccc(Oc2ccccc2)c1)c1ccc(Cl)cc1 [Compound 49]
reported_measurement: 100

compound: CCC(C)(COCc1cccc(Oc2ccc(Br)cc2)c1)c1ccc(Cl)cc1 (stereo not drawn) [Compound 46]
reported_measurement: 95

compound: Cc1ccc(C(C)(C)COCc2cccc(Oc3ccc(Br)cc3)c2)cc1 [Compound 33]
reported_measurement: 95

compound: CC(C)(COCc1cccc(Oc2ccccc2)c1)c1ccc(Cl)c(Cl)c1 [Compound 48]
reported_measurement: 100

compound: CCCOc1ccc(C(C)(C)COCc2cccc(Oc3ccccc3)c2)cc1 [Compound 57]
reported_measurement: 90

compound: CC(C)Oc1ccc(C(C)(C)COCc2cccc(Oc3ccccc3)c2)cc1 [Compound 59]
reported_measurement: 100

compound: CC(C)(COCc1cccc(Oc2ccccc2)c1)c1ccc(OC(F)F)cc1 [Compound 18]
reported_measurement: 100
